# assay-remarks: plasmodial surface anion channel blockers, osmotic lysis – cell-based, P. falciparum Indochina, OD700, 1 h, primary screen (AID 1154)
# settings: P. falciparum Indochina infected RBC osmotic lysis, higher = more signal, called active from +8 up or from −8 down
value-type: z-score
One number for each entry.

CCCC[C@@H]1C[C@H]1[C@@H](NC(=O)c1ccco1)c1ccccc1
4.64
CCCNC(=O)[C@@]1(C)c2ccccc2C(=O)N(Cc2cc(F)cc(C(F)(F)F)c2)[C@H]1c1ccc(CO)cc1
7.04
COC(=O)[C@@]1(Cc2ccc(F)cc2)[C@H]2c3cc(C(=O)N(C)C)n(Cc4ccccn4)c3C[C@H]2CN1C(=O)c1ccccc1
0.755
COc1ccc([Si](C)(C)[C@@H]2[C@@H](CCO)O[C@]3(C(=O)N(Cc4cccc(N(C=O)c5ccccc5)c4)c4ccccc43)[C@H]2C)cc1
4.07

Please supply z-score for each of the following items, keeping them in order.
1. [N-]=[N+]=NCc1ccccc1[C@@H]1OC(c2ccc(OCCCO)cc2)=N[C@]1(Cc1ccccc1N=[N+]=[N-])C(N)=O
2. CO[C@H]1O[C@H](CO)[C@@H](OC(=O)Nc2ccccc2-c2ccccc2)[C@H](OC(=O)Nc2ccccc2-c2ccccc2)[C@H]1OC(=O)Nc1ccccc1-c1ccccc1
3. O=C1NC(=O)C2C1C=CC(C(O)c1cccs1)N2Nc1ccccn1 (centres undefined)
4. COC(=O)[C@@]1(Cc2ccc(F)cc2)[C@H]2c3cc(C(=O)N4CCCC4)n(CCc4ccc(OC)c(Br)c4)c3C[C@H]2CN1C(=O)c1ccccc1

1. 20.5
2. 3.93
3. 0.624
4. 7.48

Please supply z-score for each of the following items, keeping them in order.
1. [N-]=[N+]=Nc1ccccc1C[C@]1(C(=O)N2CCCCC2)N=C(c2ccc(OCCCO)cc2)O[C@H]1c1ccccc1N=[N+]=[N-]
2. C=CCC(OC(C)=O)[C@@H]1[C@@H](N(Cc2cc3ccccc3o2)C(=O)c2ccc(-c3ccccc3)cc2)c2cc(OCCCO)ccc2N1C(=O)Cc1ccc2ccccc2c1 (some centres undefined)

30.1
0.574

Please supply z-score for each of the following items, keeping them in order.
1. C=CCC(OC(C)=O)[C@@H]1[C@@H](N(Cc2ccc(-c3cccc(C(F)(F)F)c3)o2)C(=O)Cc2ccc(OC)cc2)c2cc(OCCCO)ccc2N1C(=O)Cc1ccc(OC)cc1 (some centres undefined)
2. CN1C(=O)C2C=CC(C(O)C(c3ccccc3)c3ccccc3)N(Nc3ccccc3)C2C1=O (centres undefined)
3. CCOC1=C2C(c3ccc(C)cc3)N(S(=O)(=O)c3ccc(C)cc3)CC2n2c(=O)n(-c3ccccc3)c(=O)n2C1 (centres undefined)

[1.66, 1.63, 1.08]

Please supply z-score for each of the following items, keeping them in order.
1. C=CCNC(=O)[C@@H]1[C@H]2C(=O)O[C@H](c3ccccc3)[C@H](c3ccccc3)N2[C@H](c2ccccc2OCCO)[C@@]12C(=O)N(C(=O)OCCOC)c1ccc(C#CCC(C(=O)OC)C(=O)OC)cc12
2. [N-]=[N+]=NCc1ccccc1C[C@]1(C(=O)NCc2ccccc2)COC(c2ccc(OCCCO)cc2)=N1
3. C=C[C@@H](C)[C@@H](OC(=O)Nc1ccc(OC)cc1)c1ccc(O)c2ccccc12
4. O=C(NCc1ccccc1)[C@@H]1c2ccccc2C(=O)N(Cc2cc(F)cc(C(F)(F)F)c2)[C@H]1c1ccc(CO)cc1

1.78
28.9
2.46
5.82

Please supply z-score for each of the following items, keeping them in order.
1. CCCCC(=O)N(Cc1ccccc1F)[C@@H]1CC(C(=O)NCCO)=C[C@H](Oc2c(I)cc(CO)cc2OC)[C@H]1O
2. C=CCC(OC(C)=O)[C@@H]1[C@@H](N(Cc2cc3ccccc3o2)C(=O)c2cccc3ccccc23)c2cc(OCCCO)ccc2N1C(=O)Cc1ccc(OC)cc1 (some centres undefined)

[5.42, 1.7]

These data points were gathered from PubChem BioAssay.
